FYI, the data here is from patent US6914045B2.

system: Staphylococcus sp.; assay: in vitro antibacterial evaluation, MIC by broth dilution; assay type: cell-based; conditions: broth dilution, 18 hours at 35° C.
observationType: MIC Coagulase Negative Staphylococcus (GC 4548) (µg/mL)
Give the value, in units of µg/mL, as a plain number.

Query string: State, in one line, measured MIC Coagulase Negative Staphylococcus (GC 4548) of Cc1ccc(COCC2OC(OC3C(CO)OC(Oc4ccc(CC5NC(=O)C(C(C)c6ccccc6)NC(=O)CNC(=O)C(CO)NC(=O)C(C(O)C6CNC(=N)N6C6OC(CO)C(O)C(O)C6O)NC(=O)C(C(O)C6CNC(=N)N6)NC5=O)cc4)C(O)C3O)C(O)C(O)C2O)cc1 (centres unmarked)
Result string: 1
